- Tested System: Transcriptional activator protein LuxR (Aliivibrio fischeri) (UniProt P12746)
- Sequence (P12746 whole entry): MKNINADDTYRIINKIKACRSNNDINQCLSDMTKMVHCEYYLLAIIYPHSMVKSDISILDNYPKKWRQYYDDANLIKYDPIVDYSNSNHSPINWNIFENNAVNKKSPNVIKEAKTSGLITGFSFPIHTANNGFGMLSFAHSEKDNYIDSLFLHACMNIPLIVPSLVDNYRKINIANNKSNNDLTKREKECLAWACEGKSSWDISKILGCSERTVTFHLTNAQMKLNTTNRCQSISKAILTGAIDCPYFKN
- Experiment Notes: Agonist activity at Vibrio fischeri LuxR expressed in Escherichia coli NM522 containing Photorhabdus luminescens LuxCDABE assessed as induction of quorum sensing activation mediated bioluminescence at 0.1 to 200 uM after 4 to 5 hrs by bioluminescence assay
- Assay type: functional
The source made the active and inactive calls. The rule behind the calls is not given here.
Attribute Measured: Activity

>  <Compound>
CCCCCCCCNC(=O)C1CCOC1=O (centres undefined)

>  <Tested System>
Transcriptional activator protein LuxR (Aliivibrio fischeri) (UniProt P12746)

>  <Attribute Measured>
Activity

>  <Result>
inactive

$$$$
>  <Compound>
CCCCCCNC(=O)C1CCOC1=O (centres undefined)

>  <Tested System>
Transcriptional activator protein LuxR (Aliivibrio fischeri) (UniProt P12746)

>  <Attribute Measured>
Activity

>  <Result>
inactive

$$$$
>  <Compound>
CCCCCNC(=O)C1CCCC1O (mixture of isomers)

>  <Tested System>
Transcriptional activator protein LuxR (Aliivibrio fischeri) (UniProt P12746)

>  <Attribute Measured>
Activity

>  <Result>
inactive

$$$$
>  <Compound>
CCCCNC(=O)C1CCOC1=O (centres undefined)

>  <Tested System>
Transcriptional activator protein LuxR (Aliivibrio fischeri) (UniProt P12746)

>  <Attribute Measured>
Activity

>  <Result>
inactive

$$$$

----------
- Tested System: UniProt:P12746
- Experiment Notes: Antagonist activity at Vibrio fischeri LuxR expressed in Escherichia coli NM522 containing Photorhabdus luminescens LuxCDABE assessed as inhibition of 3-oxo-C6-HSL-induced quorum sensing activation mediated bioluminescence after 4 to 5 hrs by bioluminescence assay
Attribute Measured: IC50 (µM)

Here are 5 compounds together with their reported answers.
>  <Compound>
CCCCCNS(=O)(=O)C1CCOC1=O (stereo unspecified)

>  <IC50 [µM]>
70

$$$$
>  <Compound>
CCCCNC(=O)C1CCOC1=O (stereo unspecified)

>  <IC50 [µM]>
96

$$$$
>  <Compound>
CCCCCCCCCCNC(=O)C1CCOC1=O (stereo unspecified)

>  <IC50 [µM]>
75

$$$$
>  <Compound>
CCCCCNC(=O)C1CCCC1=O (stereo unspecified)

>  <IC50 [µM]>
40

$$$$
>  <Compound>
CCCCCCNC(=O)C1CCOC1=O (stereo unspecified)

>  <IC50 [µM]>
54

$$$$

P = CCCCCNC(=O)C1CCCC1O (stereo unspecified)
Q = CCCCCCCCNC(=O)C1CCOC1=O (stereo unspecified)
R = CCCCCNC(=O)C1CCCC1O (mixture of isomers)
Prompt line: Endpoint returns the given compounds ordered by ascending IC50. Lab note: final answer is the ordered label list.
Response line: Q, P, R

----------
Reported values of IC50 for individual entries
- Tested System: Transcriptional activator protein LuxR (Aliivibrio fischeri)
- Experiment Notes: Antagonist activity at Vibrio fischeri LuxR expressed in Escherichia coli NM522 containing Photorhabdus luminescens LuxCDABE assessed as inhibition of 3-oxo-C6-HSL-induced quorum sensing activation mediated bioluminescence after 4 to 5 hrs by bioluminescence assay
Write it as a number; the unit µM goes unstated.

>  <Molecule>
CCCCCNC(=O)C1CCOC1=O (stereo not drawn)

>  <Unit>
µM

>  <IC50>
34

$$$$

Prompt line: Would you kindly share the measured IC50 for CCCCCCCCNC(=O)C1CCCC1=O (stereo not drawn) ?
Response line: 77
